Test system: mammalian cell line viability, cytotoxicity counter-screen
Test: mammalian cell cytotoxicity, dose response, cytotoxicity control, secondary assay, set 2 (AID 493013)
// reported CC50 for each item listed

Worked set:
compound | CC50
CC(Oc1ccc(Cl)cc1)C(=O)Nc1nc2ccccc2s1 (stereo unspecified) | 46.4 µM
Cc1c(OCc2ccc(C(=O)O)cc2)ccc2c(-c3ccccc3)cc(=O)oc12 | 51.8 µM
COc1ccccc1C(=O)N/C(N)=N/c1nc2ccccc2o1 | 16.6 µM
CC(=O)Nc1ccc2nc(NC(=O)COc3ccccc3)sc2c1 | 49.8 µM

# input compound: Cc1ccccc1OCC(=O)Nc1ccccc1N1CCCCC1 ; wanted: its CC50
51 µM

Dear colleague, I am looking for the recorded CC50 of the following compound: CCOc1ccc2nc(NC(=O)COc3ccc(Cl)c(C)c3)sc2c1
38.6 µM

Any idea what CC50 was measured for CCOc1ccc2nc(NC(=O)C3(c4ccccc4)CCCC3)sc2c1 ?
62.3 µM

Where these numbers come from: PubChem BioAssay AID493013
